test_details: Phase 1 crossover PK study: oral solution fed/fasted vs IV infusion in healthy subjects
Format: in vivo, human
condition_info: human, plasma, po, 3.3 mg/kg, oral 3.3 mg/kg fasted state, human plasma; read-out: AUClast GMean
reported_endpoint: AUC(0-t) (ng·h/mL)
# number only, unit ng·h/mL dropped from output

Challenge: Given the entry Cn1cc(C2=C(c3coc4ccc(F)cc34)C(=O)NC2=O)c2cc3c(cc21)OCO3 , report its measured AUC(0-t).
Response given: 1460

---

test_details: Phase 1 crossover PK study: oral solution fed/fasted vs IV infusion in healthy subjects
Format: in vivo, human
condition_info: human, plasma, po, 3.3 mg/kg, oral 3.3 mg/kg fasted state, human plasma; read-out: Tmax Median
reported_endpoint: Tmax (h)
# number only, unit h dropped from output

Challenge: Given the entry Cn1cc(C2=C(c3coc4ccc(F)cc34)C(=O)NC2=O)c2cc3c(cc21)OCO3 , report its measured Tmax.
Response given: 2

---

test_details: Phase 1 crossover PK study: oral solution fed/fasted vs IV infusion in healthy subjects
Type: in vivo, human
condition_info: human, plasma, iv, 3.3 mg/kg, IV infusion 3.3 mg/kg, human plasma; read-out: AUC24 Median
reported_endpoint: AUC (ng·h/mL)
# number only, unit ng·h/mL dropped from output

Challenge: Given the entry Cn1cc(C2=C(c3coc4ccc(F)cc34)C(=O)NC2=O)c2cc3c(cc21)OCO3 [elraglusib] , report its measured AUC.
Response given: 7200

---

test_details: Phase 1 crossover PK study: oral solution fed/fasted vs IV infusion in healthy subjects
Type: in vivo, human
condition_info: human, plasma, po, 3.3 mg/kg, oral 3.3 mg/kg fed state, human plasma; read-out: t1/2 Median (converted)
reported_endpoint: half-life (min)
# number only, unit min dropped from output

Challenge: Given the entry Cn1cc(C2=C(c3coc4ccc(F)cc34)C(=O)NC2=O)c2cc3c(cc21)OCO3 [elraglusib] , report its measured half-life.
Response given: 1270

---

test_details: Phase 1 crossover PK study: oral solution fed/fasted vs IV infusion in healthy subjects
Assay type: in vivo, human
condition_info: human, plasma, iv, 3.3 mg/kg, IV infusion 3.3 mg/kg, human plasma; read-out: AUClast Median
reported_endpoint: AUC(0-t) (ng·h/mL)
# number only, unit ng·h/mL dropped from output

Challenge: Given the entry Cn1cc(C2=C(c3coc4ccc(F)cc34)C(=O)NC2=O)c2cc3c(cc21)OCO3 [elraglusib] , report its measured AUC(0-t).
Response given: 8250

---

test_details: Phase 1 crossover PK study: oral solution fed/fasted vs IV infusion in healthy subjects
Type: in vivo, human
condition_info: human, plasma, po, 3.3 mg/kg, oral 3.3 mg/kg fed state, human plasma; read-out: AUC96 Median
reported_endpoint: AUC (ng·h/mL)
# number only, unit ng·h/mL dropped from output

Challenge: Given the entry Cn1cc(C2=C(c3coc4ccc(F)cc34)C(=O)NC2=O)c2cc3c(cc21)OCO3 , report its measured AUC.
Response given: 4730

---

test_details: Phase 1 crossover PK study: oral solution fed/fasted vs IV infusion in healthy subjects
Assay type: in vivo, human
condition_info: human, plasma, iv, 3.3 mg/kg, human, 3.3 mg/kg IV; read-out: mean AUC∞
reported_endpoint: AUC(0-inf) (ng·h/mL)
# number only, unit ng·h/mL dropped from output

Challenge: Given the entry Cn1cc(C2=C(c3coc4ccc(F)cc34)C(=O)NC2=O)c2cc3c(cc21)OCO3 [elraglusib] , report its measured AUC(0-inf).
Response given: 8070

Reference source for all entries: patent US20250325517A1
